Origin of the recorded values: PubChem BioAssay AID1996

# recordedConditions: buffer; pH 7.4; 200.0 µM
Class membership depends on solubility kinetic alone; the intervals are bin 0: < 7 µg/mL; bin 1: ≥ 7 µg/mL and < 30 µg/mL; bin 2: ≥ 30 µg/mL

*Q* Band for `Cc1nn(CCCC(=O)Nc2ccccn2)c(C)c1[N+](=O)[O-]` ?
*A* bin 2

*Q* Band for `COc1ccc2[nH]c(=O)c(C(=O)O)cc2c1` ?
*A* bin 2

*Q* Band for `C[C@H](NC(=O)c1ccccc1)C(=O)N1CCN(Cc2ccc3c(c2)OCO3)CC1` ?
*A* bin 2

*Q* Band for `COc1cccc2cc(/C(=N/O)c3ccc(Br)cc3)oc12` ?
*A* bin 0

*Q* Band for `Nc1ccc2nc3c(c(Cl)c2c1)CCCC3` ?
*A* bin 1

*Q* Band for `O=C(Nc1ccccn1)c1cc(-c2cccc(Cl)c2)nc2ccccc12` ?
*A* bin 0
